Assay: solubility by stirred slurry, salt concentration in solution by HPLC
Type: physicochemical
Settings: 25 °C, thermodynamic from solid, after 8 days stirring at 25 degC, slurry in "a volume of solvent" (solvent not named)
Protocol: The solubility of a sample of the hydrochloride salt of the invention was determined by adding an amount of it to a volume of solvent with stirring so as to form a slurry. The slurry was stirred at 25 degC. The stirred slurry was tested at regular intervals (i.e. 1, 3, 6 and 8 days) until the concentration of the salt in solution was substantially constant. HPLC was used to determine the salt concentration in solution.
Structures can show the parent of a compound that is named as a salt.
Property label: solubility at 8 days (mg/mL)
Write it as a number; the unit mg/mL goes unstated.

## Input Entry COCC1C2CCC(CC1c1ccc(Cl)c(Cl)c1)N2 (stereo not shown) [salt of the invention] has what solubility at 8 days?
## Output 438
